- TARGET: VEGFR-2 (Homo sapiens, UniProt P35968)
- Sequence (P35968 20-1356, species assumed): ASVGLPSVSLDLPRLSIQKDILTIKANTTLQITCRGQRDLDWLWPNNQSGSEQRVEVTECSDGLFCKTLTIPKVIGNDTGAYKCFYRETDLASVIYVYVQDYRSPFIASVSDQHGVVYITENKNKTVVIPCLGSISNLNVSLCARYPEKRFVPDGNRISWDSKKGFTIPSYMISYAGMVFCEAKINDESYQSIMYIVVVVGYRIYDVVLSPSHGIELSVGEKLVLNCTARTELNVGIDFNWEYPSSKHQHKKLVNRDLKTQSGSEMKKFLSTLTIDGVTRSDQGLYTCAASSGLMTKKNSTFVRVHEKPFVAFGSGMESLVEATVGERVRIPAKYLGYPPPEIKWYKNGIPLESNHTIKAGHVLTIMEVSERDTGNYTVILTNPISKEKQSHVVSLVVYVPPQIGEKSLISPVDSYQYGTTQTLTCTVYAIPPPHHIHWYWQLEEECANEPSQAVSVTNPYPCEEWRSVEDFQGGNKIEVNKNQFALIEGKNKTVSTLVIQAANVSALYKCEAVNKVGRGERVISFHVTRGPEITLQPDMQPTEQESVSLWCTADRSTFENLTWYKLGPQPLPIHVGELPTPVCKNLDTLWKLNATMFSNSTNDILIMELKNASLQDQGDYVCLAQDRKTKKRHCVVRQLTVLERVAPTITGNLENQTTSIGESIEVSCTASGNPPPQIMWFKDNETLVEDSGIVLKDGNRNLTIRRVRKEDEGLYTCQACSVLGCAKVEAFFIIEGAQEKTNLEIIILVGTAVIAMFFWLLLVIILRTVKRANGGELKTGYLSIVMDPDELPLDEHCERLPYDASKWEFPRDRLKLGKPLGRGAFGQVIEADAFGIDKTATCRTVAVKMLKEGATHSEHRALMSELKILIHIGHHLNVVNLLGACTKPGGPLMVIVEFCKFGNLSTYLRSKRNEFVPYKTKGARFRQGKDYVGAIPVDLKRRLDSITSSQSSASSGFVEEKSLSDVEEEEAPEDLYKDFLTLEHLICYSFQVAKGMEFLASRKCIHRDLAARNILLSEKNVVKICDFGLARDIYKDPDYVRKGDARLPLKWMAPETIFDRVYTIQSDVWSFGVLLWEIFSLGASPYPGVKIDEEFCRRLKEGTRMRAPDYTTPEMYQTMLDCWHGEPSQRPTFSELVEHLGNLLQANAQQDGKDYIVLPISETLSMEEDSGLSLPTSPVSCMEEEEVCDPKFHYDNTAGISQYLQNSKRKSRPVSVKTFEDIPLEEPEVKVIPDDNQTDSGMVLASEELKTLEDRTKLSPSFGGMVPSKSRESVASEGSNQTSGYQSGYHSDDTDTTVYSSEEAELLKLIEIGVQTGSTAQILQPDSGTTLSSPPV
OBSERVATION_TYPE: pIC50
Numbers only, as −log10 of the molar value.

(Q) Fill in: pIC50 on VEGFR-2 (Homo sapiens, UniProt P35968), entry CO[C@]1(C(=O)N[C@@H](C)c2ccc(-n3cc(F)cn3)nc2)CC[C@H](c2nc(C)cc(Nc3cc(C)[nH]n3)n2)CC1 [Compound A]
(A) 7.46

Data origin: patent US20210290620A1
